tested on: NCI-H838; test: relative viability (nuclei count vs DMSO), 5 days (fraction); higher = more cells survive; settings: first compound 0.005 µM
relative viability values, listed per item
Test readout: relative viability

1) Nc1ccn([C@@H]2O[C@H](CO)[C@@H](O)[C@@H]2O)c(=O)n1 [Cytarabine] + CC(=O)Nc1cccc(-n2c(=O)n(C3CC3)c(=O)c3c(Nc4ccc(I)cc4F)n(C)c(=O)c(C)c32)c1 [Trametinib] (partner 0.02 µM) : 0.724
2) Nc1ccn([C@@H]2O[C@H](CO)[C@@H](O)[C@@H]2O)c(=O)n1 [Cytarabine] + N=C(N)NC(=N)NCCc1ccccc1 [Phenformin] (partner 250 µM) : 0.482
3) Nc1ccn([C@@H]2O[C@H](CO)[C@@H](O)[C@@H]2O)c(=O)n1 [Cytarabine] + CC1(C)CCC(c2ccc(Cl)cc2)=C(CN2CCN(c3ccc(C(=O)NS(=O)(=O)c4ccc(N[C@H](CCN5CCOCC5)CSc5ccccc5)c(S(=O)(=O)C(F)(F)F)c4)cc3)CC2)C1 [Navitoclax] (partner 0.5 µM) : 1.29
4) COc1cc2nccc(Oc3ccc(NC(=O)Nc4cc(C)on4)c(Cl)c3)c2cc1OC [Tivozanib] + COc1cc2c(Oc3ccc(NC(=O)C4(C(=O)Nc5ccc(F)cc5)CC4)cc3F)ccnc2cc1OCCCN1CCOCC1 [Foretinib] (partner 0.25 µM) : 1.06

---

tested on: NCI-H2405; test: relative viability (nuclei count vs DMSO), 5 days (fraction); higher = more cells survive; settings: first compound 50 µM
Listing of recorded relative viability by entry.
Test readout: relative viability

1. O=C(O)CCCCC(CCSCc1ccccc1)SCc1ccccc1 (centres undefined) [CPI-613] + CS(=O)(=O)N1CCN(Cc2cc3nc(-c4cccc5[nH]ncc45)nc(N4CCOCC4)c3s2)CC1 [Pictilisib] (partner 1 µM) : 0.425
2. O=C(O)CCCCC(CCSCc1ccccc1)SCc1ccccc1 (centres undefined) [CPI-613] + O=C(c1cc(Cc2n[nH]c(=O)c3ccccc23)ccc1F)N1CCN(C(=O)C2CC2)CC1 [Olaparib] (partner 8 µM) : 0.781
3. O=C(O)CCCCC(CCSCc1ccccc1)SCc1ccccc1 (centres undefined) [CPI-613] + COc1cc2c(Oc3ccc(NC(=O)C4(C(=O)Nc5ccc(F)cc5)CC4)cc3F)ccnc2cc1OCCCN1CCOCC1 [Foretinib] (partner 0.25 µM) : 0.995
4. O=C(O)CCCCC(CCSCc1ccccc1)SCc1ccccc1 (centres undefined) [CPI-613] + Cc1nc(Nc2ncc(C(=O)Nc3c(C)cccc3Cl)s2)cc(N2CCN(CCO)CC2)n1 [Dasatinib] (partner 0.075 µM) : 0.203

---

system: NCI-H2085; test: relative viability (nuclei count vs DMSO), 5 days (fraction); higher = more cells survive; settings: first compound 0.1581 µM
Class key for relative viability values: low: < 0.4; middle: ≥ 0.4 and < 0.7; high: ≥ 0.7

1. Nc1ccn([C@@H]2O[C@H](CO)[C@@H](O)[C@@H]2O)c(=O)n1 [Cytarabine] + Cc1nc(Nc2ncc(C(=O)Nc3c(C)cccc3Cl)s2)cc(N2CCN(CCO)CC2)n1 [Dasatinib] (partner 0.075 µM) : low
2. Nc1ccn([C@@H]2O[C@H](CO)[C@@H](O)[C@@H]2O)c(=O)n1 [Cytarabine] + CCNC(=O)c1noc(-c2cc(C(C)C)c(O)cc2O)c1-c1ccc(CN2CCOCC2)cc1 [Luminespib] (partner 0.01 µM) : middle
3. Nc1ccn([C@@H]2O[C@H](CO)[C@@H](O)[C@@H]2O)c(=O)n1 [Cytarabine] + COc1cccc2cc(-c3nc([C@H]4CC[C@H](C(=O)O)CC4)n4ncnc(N)c34)[nH]c12 [OSI-027] (partner 0.5 µM) : middle
4. COc1cc2nccc(Oc3ccc(NC(=O)Nc4cc(C)on4)c(Cl)c3)c2cc1OC [Tivozanib] + COc1cc2c(Oc3ccc(NC(=O)C4(C(=O)Nc5ccc(F)cc5)CC4)cc3F)ccnc2cc1OCCCN1CCOCC1 [Foretinib] (partner 0.25 µM) : high
5. COc1cc2nccc(Oc3ccc(NC(=O)Nc4cc(C)on4)c(Cl)c3)c2cc1OC [Tivozanib] + Cc1cc(Nc2cc(N3CCN(C)CC3)nc(Sc3ccc(NC(=O)C4CC4)cc3)n2)n[nH]1 [Tozasertib] (partner 0.1 µM) : high
6. COc1cc2nccc(Oc3ccc(NC(=O)Nc4cc(C)on4)c(Cl)c3)c2cc1OC [Tivozanib] + CC(=O)c1c(C)c2cnc(Nc3ccc(N4CCNCC4)cn3)nc2n(C2CCCC2)c1=O [Palbociclib] (partner 0.5 µM) : middle
7. Nc1ccn([C@@H]2O[C@H](CO)[C@@H](O)[C@@H]2O)c(=O)n1 [Cytarabine] + COc1cc2c(Oc3ccc(NC(=O)C4(C(=O)Nc5ccc(F)cc5)CC4)cc3F)ccnc2cc1OCCCN1CCOCC1 [Foretinib] (partner 0.25 µM) : middle
8. COc1cc2nccc(Oc3ccc(NC(=O)Nc4cc(C)on4)c(Cl)c3)c2cc1OC [Tivozanib] + CC1(C)CCC(c2ccc(Cl)cc2)=C(CN2CCN(c3ccc(C(=O)NS(=O)(=O)c4ccc(N[C@H](CCN5CCOCC5)CSc5ccccc5)c(S(=O)(=O)C(F)(F)F)c4)cc3)CC2)C1 [Navitoclax] (partner 0.5 µM) : high
9. COc1cc2nccc(Oc3ccc(NC(=O)Nc4cc(C)on4)c(Cl)c3)c2cc1OC [Tivozanib] + COc1cccc2cc(-c3nc([C@H]4CC[C@H](C(=O)O)CC4)n4ncnc(N)c34)[nH]c12 [OSI-027] (partner 0.5 µM) : low
